target: guinea pig Sigma Receptor, Non-selective Binding, SIGMAR1 (gene 100135589); experiment: NVS_OR_gSIGMA_NonSelective: NovaScreen (NVS) Nuclear Receptor Binding Assay for guinea pig Sigma Receptor, Non-selective Binding (AID 2283367)
Active and inactive are the calls of the source. How the source made its calls: active means hit-call score of the fitted dose curve at least 0.9, where 1 is the maximum; inconclusive means response in the unintended direction; inactive means score below 0.9.
Measurement Type: AC50

                         chemical_structure          obs_value
0  O=C1c2ccccc2C(=O)N1CCc1noc(-c2ccc(CN3CCCCCC3)s2)n1   6.76 µM (active)
1  Cc1occc1C(=O)Nc1ccc(C(=O)N2CCC(F)(F)/C(=C\C(=O)N3CCC(N4CCCCC4)CC3)c3ccccc32)cc1   2.93 µM (active)
2              c1ccc(C[n+]2cccc3ccccc32)cc1   8.14 µM (active)
3  CCN(CC)C(=O)c1cc(S(=O)(=O)Cc2ccccc2)c(N2CCC(c3ccccc3)CC2)cc1N(CC)CCN(C)C   6.21 µM (active)
4  CN(C)c1ccc(C(=C2C=CC(=[N+](C)C)C=C2)c2ccc(N(C)C)cc2)cc1   14.8 µM (active)
5                   CCCCCCCCCCCC[N+](C)(C)C  0.123 µM (active)
6  CN(C)C(=O)C1(N2CCCCC2)CCN(CC[C@@]2(c3ccc(Cl)c(Cl)c3)CN(C(=O)c3ccccc3)CCO2)CC1      6 µM (active)
7  COc1cc(C(=O)NC2CCN(C)CC2)ccc1Nc1ncc2c(n1)N(C1CCCC1)CC(F)(F)C(=O)N2C   9.05 µM (active)
8                      CCCCCCCCN(C)CCCCCCCC  0.212 µM (active)
9  CCOC(=O)O[C@H](C)OC(=O)c1ccc2c(c1)cc(C(=O)NC1CCN(C(C)C)CC1)n2Cc1cc(-c2ccc(Cl)s2)on1  0.226 µM (active)

---

target: Estrogen receptor (Homo sapiens) (UniProt P03372); assay: OT_ER_ERaERa_1440: Odyssey Thera (OT) 24-hour HEK293T Protein-Complementation Assay for Estrogen Receptor-alpha/-alpha Homodimer (AID 2283349);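 further: hits raise fluorescence above DMSO for agonists and antagonists alike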
Sequence (P03372 whole entry, looked up): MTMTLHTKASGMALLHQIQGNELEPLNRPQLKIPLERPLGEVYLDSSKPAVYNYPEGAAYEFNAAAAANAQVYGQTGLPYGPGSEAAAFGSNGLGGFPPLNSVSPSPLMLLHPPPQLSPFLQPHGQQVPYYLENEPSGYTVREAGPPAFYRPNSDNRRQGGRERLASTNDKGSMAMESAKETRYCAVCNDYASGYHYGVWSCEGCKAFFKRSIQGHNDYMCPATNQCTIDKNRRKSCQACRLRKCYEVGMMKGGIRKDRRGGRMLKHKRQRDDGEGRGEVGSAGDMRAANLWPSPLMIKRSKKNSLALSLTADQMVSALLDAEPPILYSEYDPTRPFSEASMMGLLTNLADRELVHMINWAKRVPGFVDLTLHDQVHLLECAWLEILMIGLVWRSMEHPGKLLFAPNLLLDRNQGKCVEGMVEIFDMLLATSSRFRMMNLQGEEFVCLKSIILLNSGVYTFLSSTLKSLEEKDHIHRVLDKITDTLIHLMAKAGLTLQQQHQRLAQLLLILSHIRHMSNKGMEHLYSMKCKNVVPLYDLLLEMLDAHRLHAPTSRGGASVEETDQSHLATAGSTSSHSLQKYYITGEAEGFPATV
The source made the active and inactive calls. The calls were made as follows: active = hit-call score of the fitted dose curve at least 0.9, where 1 is the maximum; inconclusive = response in the unintended direction; inactive = score below 0.9.
Labels: 1 for active, 0 for inactive

In [3]: df
Out[3]:
                                    compound  assigned_category
 0  CCN(Cc1cccc(S(=O)(=O)O)c1)c1ccc(C(=C2C=CC(=[N+](CC)Cc3cccc(S(=O)(=O)O)c3)C=C2)c2ccccc2S(=O)(=O)[O-])cc1                  0
 1           CCCCCCCCOC(=O)c1cc(O)c(O)c(O)c1                  1
 2        O=C(OCCCCCCOC(=O)c1ccccc1)c1ccccc1                  0
 3  CN(C)c1ccc(C(=C2C=CC(=[N+](C)C)C=C2)c2ccc(N(C)C)cc2)cc1                  0
 4  CCN(CC)C(=O)c1cc(S(=O)(=O)Cc2ccccc2)c(N2CCC(c3ccccc3)CC2)cc1N(CC)CCN(C)C                  0
 5                          CCCCCc1ccc(N)cc1                  0
 6    Clc1ccccc1C(c1ccccc1)(c1ccccc1)n1ccnc1                  0
 7                                 O=CCCCC=O                  0
 8                           Cc1cccc2ccccc12                  0
 9             O=C(O)c1ccccc1C(=O)OCc1ccccc1                  0
10                            c1ccc2ccccc2c1                  0
11                      CCCCCCCCN(C)CCCCCCCC                  0
12       CCCCCCCCOc1ccc(C(=O)c2ccccc2)c(O)c1                  0
13  Cc1cn([C@H]2C[C@H](N=[N+]=[N-])[C@@H](CO)O2)c(=O)[nH]c1=O                  0
14                              CCCCCCCCCCCO                  0
15  O=C(O)Cn1c(=O)n(Cc2ccc(Br)cc2F)c(=O)c2ccc(Cl)cc21                  0
16  Cc1cc(F)ccc1-c1cc(N2CC[C@@H](O)[C@H]2CO)ncc1N(C)C(=O)C(C)(C)c1cc(C(F)(F)F)cc(C(F)(F)F)c1                  0
17  CC(C)(C)c1csc(-c2cc3cc(OCc4ccccc4CC(=O)O)ccc3o2)n1                  0
18  OC12N=C(c3ccccc3)SC1Cc1cc(Cl)ccc12 (stereo not given)                  0
19       O=C(Nc1ccc(Cl)cc1)Nc1ccc(Cl)c(Cl)c1                  0
20  NC(=O)c1nc(-c2cccc(-c3cc(F)ccc3OCC(F)(F)C(F)(F)F)c2)n[nH]1                  0
21                             CCCCCCCCCCCCO                  0
22  NCc1cccc(C2CCN(C(=O)c3ccc(C#Cc4ccccc4F)o3)CC2)c1                  0
23                          CCCC(=O)OCCC(C)C                  0
24            Clc1cc(Cl)c2c(c1)N=C1CCCCCN1C2                  0
